Numbers sourced from PubChem BioAssay (NCI).

# System: HL-60(TB) leukemia
# measurement description: NCI tumour cell line growth inhibition, 48 h
endpoint label: TGI (µM)
Numbers only here, please. The scale is µM.

// map COc1cc([C@H]2Oc3cc(O)c4c(=O)cc(-c5ccc(O)cc5)oc4c3O[C@@H]2CO)ccc1O to recorded TGI (system: HL-60(TB) leukemia)
53

----------
# Tested on: CCRF-CEM leukemia
# measurement description: NCI tumour cell line growth inhibition, 48 h
endpoint label: TGI

Take a look at these entries with their results.
1) CC(=O)OCC1OC(S[As](C)C)C(OC(C)=O)C1OC(C)=O (centres undefined) :: 1.34 µM
2) O=C(CC(=O)C(F)(F)F)c1csc2ccccc12 :: > 100 µM
3) O=C(/C=C\c1ccccc1-c1ccccc1)c1ccccc1 :: > 100 µM

Could you tell me which TGI is on file for COc1ccccc1NC(=O)C1=C(C)NC(C)=C(C(=O)Nc2ccccc2OC)C1c1ccccc1OC ?
> 100 µM

Let us now turn to Cc1ccnc2nc3[nH]c4ccccc4c3cc12
> 100 µM

----------
# System: UACC-257 melanoma
# measurement description: NCI tumour cell line growth inhibition, 48 h
endpoint label: GI50

1. CC/C(=C(\CC)c1ccc(OCCN(CC)CC)cc1)c1ccc(OCCN(CC)CC)cc1 :: 1.23 µM
2. COc1cc2c(cc1OC)[C@@]1(C)C(=O)c3cc4c(cc3[C@H]1N(C)C2=O)OCO4 :: 23.7 µM

// map CCOC(=O)c1c(Cl)c2c(n1Cc1cc(OC)cc(OC)c1)-c1oncc1CCC2 to recorded GI50 (system: UACC-257 melanoma)
0.92 µM

Let us now turn to [N-]=[N+]=CC(=O)OCC(N)C(=O)O (stereo not drawn)
3.61 µM

Let us now turn to Cc1cccc(N=C2c3cc([N+](=O)[O-])ccc3-c3c2cc([N+](=O)[O-])cc3[N+](=O)[O-])c1
6.81 µM

Let us now turn to Cn1cnc2c(NCc3ccccc3)nc(NCCO)nc21
155 µM

Let us now turn to CC(=O)OCC1OC(S[As](C)C)C(OC(C)=O)C1OC(C)=O (stereo not drawn)
1.57 µM

Let us now turn to CC[C@H](C)C(=O)O[C@H]1CCC=C2C=C[C@H](C)C(CCC3C[C@@H](O)CC(=O)O3)[C@H]21 (stereo partly drawn)
> 100 µM

----------
# Test system: OVCAR-3 ovarian
# measurement description: NCI tumour cell line growth inhibition, 48 h
endpoint label: TGI

Take a look at these entries with their results.
1. Cc1ccnc2nc3[nH]c4ccccc4c3cc12 :: > 100 µM
2. CO[C@H](c1ccccc1)[C@H](O)[C@](O)(c1ccccc1)P(=O)(OC)OC :: > 100 µM
3. Cc1ccnc2c1ccc1nc3ccccc3n12 :: > 100 µM

Could you tell me which TGI is on file for C#C[C@]1(O)CC[C@H]2[C@@H]3CCC4=C/C(=N\OCCN5CCCC5)CC[C@]4(C)[C@H]3CC[C@@]21C ?
27.1 µM

Let us now turn to CC1(C)OC(=O)CC12CCN(Cc1ccccc1)CC2
> 100 µM

----------
# Tested on: 786-0 renal
# measurement description: NCI tumour cell line growth inhibition, 48 h
Listed next: entries and their corresponding log10 TGI.
In our notation, the value equals log10 of TGI in µM.

1. Cc1cccc(N=C2c3cc([N+](=O)[O-])ccc3-c3c2cc([N+](=O)[O-])cc3[N+](=O)[O-])c1 :: 0.75

Could you tell me which log10 TGI is on file for O=Cc1ccc2c(c1)CC1(C2)Cc2ccc(C=O)cc2C1 ?
1.51

Let us now turn to COC(=O)c1c2c(c(C)[n+]([O-])c1C)C(=O)C(NCc1ccc(F)c(F)c1)=CC2=O
1.10

----------
Listed next: entries and their corresponding TGI.
# System: M14 melanoma
# measurement description: NCI tumour cell line growth inhibition, 48 h
Where a SMILES comes first, the peptide text is derived from it. The star is where a group is joined. OBn = c1ccc(CO*)cc1

Take a look at these entries with their results.
1. COc1ccccc1CNCc1nc2ccccc2[nH]1 :: > 100 µM
2. NC(CCC(=O)OCc1ccccc1)C(=O)NC(CCC(=O)OCc1ccccc1)C(=O)O (centres undefined) (H-Glu(OBn)-Glu(OBn)-OH; configuration not given here) :: > 100 µM
3. CNC(=S)NNC1=NCCCCN1 :: > 100 µM
4. Cc1ccc(C2=NO[C@@H]3C(=O)N(c4ccc(Cc5ccc(N6C(=O)[C@H]7C(c8ccc(C)cc8)=NO[C@H]7C6=O)cc5)cc4)C(=O)[C@H]23)cc1 :: > 100 µM
5. Clc1ccc(CO/N=C(\Cn2ccnc2)c2ccc(Cl)cc2Cl)c(Cl)c1 :: 3.71 µM

Could you tell me which TGI is on file for Cc1nc2ccc(N=NN(C)C)cc2[nH]1 ?
> 100 µM

----------
# Tested on: A549 NSCLC
# measurement description: NCI tumour cell line growth inhibition, 48 h
endpoint label: TGI

Take a look at these entries with their results.
1. CCOC(=O)c1c(NC(=O)c2ccc(OC)cc2)sc2c1CCCC2 :: > 100 µM
2. CCCCc1ccc(N2C(=O)c3cccnc3S2(=O)=O)cc1 :: > 100 µM
3. CNC(=O)CN(CC(N)=O)C(=O)NC :: > 100 µM
4. COc1ccc(-c2cc(-c3ccco3)c(C#N)c(=S)n2C2OC(CO)C(O)C(O)C2O)cc1 (stereo unspecified) :: > 100 µM
5. COC(=O)C1C(=O)O[C@@H](c2ccc(OC)cc2OC)C1C(=O)OC (stereo partly specified) :: > 100 µM
6. C=CC(c1ccccc1)C1(O)c2cccc(O)c2C(=O)c2c(O)cccc21 (stereo unspecified) :: 32.9 µM
7. Cc1ccc(S(=O)(=O)N/N=C(\C(=O)Nc2cccc([N+](=O)[O-])c2)c2nc3ccc([N+](=O)[O-])cc3[nH]c2=O)cc1 :: > 100 µM
8. O=C(O)CCSc1nnc(COc2ccc(Cl)cc2)n1-c1ccccc1 :: > 100 µM
9. CC1C2=CC=C(O2)C(C)(C)C2=CC=C(O2)C(C)(C)C2=CC=C(O2)C(C)(C)C2=CC=C1O2 :: > 100 µM
10. COc1ccc(C(CC(=O)c2ccccc2)C(=O)c2ccc3c(c2)OCO3)cc1 (stereo unspecified) :: > 100 µM

// map CC1=[N+]([O-])C(C)(C)N(O)C1(C)C to recorded TGI (system: A549 NSCLC)
> 100 µM

Let us now turn to COC(=O)C1=CC2OC13CC1CCC3(C2=O)C1(C)C (stereo unspecified)
92.7 µM

Let us now turn to COC1/C=C\OC2(C)Oc3c(C)c(O)c4c(O)c(c(CN(C)C)c(O)c4c3C2=O)NC(=O)/C(C)=C\C=C/C(C)C(O)C(C)C(O)C(C)C(OC(C)=O)C1C (stereo unspecified)
> 100 µM

Let us now turn to COc1ccc2c(c1)Cc1c-2c(NN)nc2ccccc12
> 100 µM

Let us now turn to O=C(Nc1ccccc1)C(=O)C(C(=O)c1ccccc1)C(c1ccccc1)c1ccccc1 (stereo unspecified)
> 10 µM

Let us now turn to COc1ccc(OC)c2cc(C3(C)SCCCS3)ccc12
> 100 µM

Let us now turn to NC(=O)NC(=O)c1ccc(NC(=O)CBr)cc1
> 32.6 µM

----------
# Tested on: SF-268 CNS
# measurement description: NCI tumour cell line growth inhibition, 48 h
Where a SMILES comes first, the peptide text is derived from it. The star is where a group is joined. OBn = c1ccc(CO*)cc1
Listed next: entries and their corresponding TGI.

Take a look at these entries with their results.
1. NC(CCC(=O)OCc1ccccc1)C(=O)NC(CCC(=O)OCc1ccccc1)C(=O)O (configuration not stated) (H-Glu(OBn)-Glu(OBn)-OH; configuration not given here) :: > 100 µM
2. CN(C)CC1CCn2c(c(C3=C(c4cn(C)c5ccccc45)C(=O)NC3=O)c3ccccc32)C1 (configuration not stated) :: 7.97 µM
3. CC(=C(C(=O)O)C(=O)O)c1cc(-c2cccs2)cc(-c2ccc(Cl)cc2)c1O :: 54.9 µM
4. CCOC(=O)/C(=C\NC(C)(C)C)c1nc2ccccc2o1 :: > 100 µM
5. Cc1ccc(C(=O)NC2CCCCC2)cc1-c1ccc(C(=O)NCC2CC2)cc1 :: > 25 µM

Could you tell me which TGI is on file for Nc1nncs1 ?
> 5000 µM

Let us now turn to Cc1cc2nc3c(C#N)c(-c4ccccc4)cc(Nc4ccc(F)cc4)n3c2cc1C
27.9 µM

----------
# System: OVCAR-8 ovarian
# measurement description: NCI tumour cell line growth inhibition, 48 h
endpoint label: GI50

Take a look at these entries with their results.
1) O=C1/C(=C/c2ccc(Cl)cc2)CN(C(=O)C(Cl)Cl)C/C1=C\c1ccc(Cl)cc1 :: 0.22 µM
2) COc1cc2c(cc1OC)[C@@]1(C)C(=O)c3cc4c(cc3[C@H]1N(C)C2=O)OCO4 :: 29.3 µM
3) CCCCCCCCCCCCCCCCOCCCOP(=O)(O)C1CCCN(O)C1=O (configuration not stated) :: 3.29 µM
4) Cn1cc(C2=C(c3c4n(c5ccccc35)CCC(CN)CC4)C(=O)NC2=O)c2ccccc21 (configuration not stated) :: 4.82 µM
5) CC/C(=C(\CC)c1ccc(OCCN(CC)CC)cc1)c1ccc(OCCN(CC)CC)cc1 :: 5.85 µM

Could you tell me which GI50 is on file for CC1(C)C2CCC13C(=O)C1OC3(C2)C2C(=O)c3c(O)ccc(O)c3C(=O)C12 (configuration not stated) ?
47.2 µM

Let us now turn to CC[C@H](C)C(=O)O[C@H]1CCC=C2C=C[C@H](C)C(CCC3C[C@@H](O)CC(=O)O3)[C@H]21 (some centres not stated)
3.78 µM

Let us now turn to NC(=O)Oc1cc(OC(N)=O)cc(N(CCCl)CCCl)c1
5.74 µM

Let us now turn to CO[C@H]1CC[C@@]2(C)C(=CC[C@H]3[C@@H]4C[C@H](O)C[C@@]4(C)CC[C@@H]32)C1
5.14 µM

Let us now turn to COC(=O)Nc1nc2ccc(Oc3ccc(NC(=O)Nc4cccc(Cl)c4)cc3)cc2[nH]1
2.84 µM

Let us now turn to Cc1ccc(NC(=O)c2ccnc(N3CCCC3)c2)cc1-c1ccc(C(=O)NCC2CC2)cc1
> 25 µM

Let us now turn to C/C(=C\c1ccn(-c2ccc(N)cc2)n1)[C@@H]1C[C@@H]2O[C@]2(C)CCC[C@H](C)[C@H](O)[C@@H](C)C(=O)C(C)(C)[C@@H](O)CC(=O)O1
0.0481 µM

Let us now turn to Cc1ccc(S(=O)(=O)n2cc(C(=O)C(=O)Nc3ccncc3)c3ccccc32)cc1
3.1 µM

Let us now turn to COc1ccc2c(c1)Cc1c-2c(NN)nc2ccccc12
23.8 µM

Let us now turn to C[C@]12CCC(=O)C=C1CC[C@@H]1[C@@H]2CC[C@]2(C)C(=O)/C(=C/c3cccc(OCCN4CCOCC4)c3)C[C@@H]12
6.28 µM

Let us now turn to Cn1cnc2c(NCc3ccccc3)nc(NCCO)nc21
90.5 µM

Let us now turn to C#C[C@@]1(O)[C@@H](CO)O[C@@H](n2cc(F)c3c(N)ncnc32)[C@@H]1O
0.256 µM
